Target: Metabotropic glutamate receptor 5 (Homo sapiens, UniProt P41594)
Sequence (P41594 21-1212 limits assumed): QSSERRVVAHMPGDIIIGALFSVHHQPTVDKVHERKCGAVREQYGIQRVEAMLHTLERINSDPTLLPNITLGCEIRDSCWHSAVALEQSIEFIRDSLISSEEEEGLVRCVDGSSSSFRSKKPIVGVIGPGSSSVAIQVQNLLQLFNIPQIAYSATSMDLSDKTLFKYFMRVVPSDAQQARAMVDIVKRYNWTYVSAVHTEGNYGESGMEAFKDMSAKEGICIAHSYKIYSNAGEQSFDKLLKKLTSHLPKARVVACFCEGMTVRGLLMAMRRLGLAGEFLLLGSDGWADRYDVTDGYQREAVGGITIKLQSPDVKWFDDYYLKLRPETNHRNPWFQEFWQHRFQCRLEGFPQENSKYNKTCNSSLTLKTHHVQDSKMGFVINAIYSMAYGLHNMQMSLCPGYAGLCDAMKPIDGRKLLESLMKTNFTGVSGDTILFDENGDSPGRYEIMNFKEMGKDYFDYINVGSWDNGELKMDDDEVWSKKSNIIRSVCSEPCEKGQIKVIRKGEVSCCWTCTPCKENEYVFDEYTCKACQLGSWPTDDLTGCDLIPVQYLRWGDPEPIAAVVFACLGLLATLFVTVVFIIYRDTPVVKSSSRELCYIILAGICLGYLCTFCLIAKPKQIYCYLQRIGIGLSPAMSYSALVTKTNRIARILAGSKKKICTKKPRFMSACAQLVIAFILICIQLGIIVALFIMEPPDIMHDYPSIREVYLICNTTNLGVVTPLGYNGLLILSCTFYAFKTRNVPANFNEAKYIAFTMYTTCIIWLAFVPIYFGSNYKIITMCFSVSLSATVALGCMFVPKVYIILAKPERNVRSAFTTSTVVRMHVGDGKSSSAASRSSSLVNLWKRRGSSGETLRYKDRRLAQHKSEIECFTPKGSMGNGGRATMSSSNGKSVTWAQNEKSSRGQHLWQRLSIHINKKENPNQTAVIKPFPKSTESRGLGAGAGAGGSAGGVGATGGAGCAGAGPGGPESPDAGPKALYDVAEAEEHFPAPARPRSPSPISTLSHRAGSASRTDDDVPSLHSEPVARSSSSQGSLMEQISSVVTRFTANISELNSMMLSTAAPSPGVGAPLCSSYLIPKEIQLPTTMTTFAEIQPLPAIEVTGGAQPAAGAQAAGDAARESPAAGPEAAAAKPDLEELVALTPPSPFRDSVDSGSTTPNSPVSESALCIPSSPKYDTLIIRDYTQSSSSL
Test: Displacement of [3H]M-MPEP from mGluR5 (unknown origin) at 1 uM measured after 60 mins relative to control
measurement_type: inhibition (%)

COc1ccc(S(=O)(=O)c2cnc3cc(Cl)ccc3c2N2CCC(C)CC2)cc1OC 93
Cc1ccc2ncc(S(=O)(=O)c3ccc(C#N)cc3)c(N3CCC(C)CC3)c2c1 55
COc1ccc(S(=O)(=O)c2cnc3cc(Cl)ccc3c2N2CCOCC2)cc1Cl 62
O=S(=O)(c1ccc(F)cc1)c1cnc2cc(F)ccc2c1N1CCOCC1 29

a = Cc1ccc(S(=O)(=O)c2cnc3cc(Cl)ccc3c2N2CCC(C)CC2)cc1F
b = N#Cc1ccc(S(=O)(=O)c2cnc3ccc(F)cc3c2N2CCOCC2)cc1
### Prompt Decide: a or b , by lowest recorded inhibition. Returns: label corresponding to the selected item.
### Response b

====

Biological target: Metabotropic glutamate receptor 5 (Homo sapiens)
Test: Displacement of [3H]M-MPEP from mGluR5 (unknown origin) at 1 uM measured after 60 mins relative to control
measurement_type: inhibition (%)

1 = COCC1CCN(c2c(S(=O)(=O)c3cccc(F)c3)cnc3cc(F)ccc23)CC1
2 = Cc1ccc2ncc(S(=O)(=O)c3cccc(F)c3)c(N3CCOCC3)c2c1
### Prompt Of 1 and 2 , which carries the smaller reported inhibition figure? Reply with the label of the item you choose.
### Response 2

1 = COc1ccc2ncc(S(=O)(=O)c3cccc(C#N)c3)c(N3CCC(C)CC3)c2c1
2 = COc1ccc2ncc(S(=O)(=O)c3cccc(Cl)c3)c(N3CCOCC3)c2c1
### Prompt Between the entries labeled 1 and 2 , whose measured inhibition is lower? In your reply, give the label of the chosen option.
### Response 2
(2: 12%, 1: 90%)

====

Target: Metabotropic glutamate receptor 5 (Homo sapiens, UniProt P41594)
Assay: Displacement of [3H]M-MPEP from mGluR5 (unknown origin) at 1 uM measured after 60 mins relative to control
measurement_type: inhibition (%)

Below are worked cases with known answers.
CC1CCN(c2c(S(=O)(=O)c3ccc(C#N)cc3)cnc3c(F)cccc23)CC1 86
Cc1ccc(S(=O)(=O)c2cnc3cc(Cl)ccc3c2N2CCC(C)CC2)cc1C 86
Cc1ccc(S(=O)(=O)c2cnc3c(F)cccc3c2N2CCC(C)CC2)cc1F 93
CC1CCN(c2c(S(=O)(=O)c3ccc(C#N)cc3)cnc3ccc(F)cc23)CC1 75
COc1ccc2ncc(S(=O)(=O)c3cc(Cl)cc(Cl)c3)c(N3CCC(C)CC3)c2c1 87

P = Cc1ccc(S(=O)(=O)c2cnc3ccc(Cl)cc3c2N2CCOCC2)cc1Cl
Q = COc1ccc2ncc(S(=O)(=O)c3ccc(C#N)cc3)c(N3CCOCC3)c2c1
### Prompt Between P and Q , whose measured inhibition reads higher? Write down the label attached to your selection.
### Response P
(P: 53%, Q: 2%)

====

Experiment: Aqueous solubility of the compound in water
Assay type: physicochemical
// solubility lookup, one value per entry

Look over these answered cases.
Cc1ccc2ncc(S(=O)(=O)c3cccc(F)c3)c(N3CCC(C)CC3)c2c1 < 3 µM
O=S(=O)(c1cccc(Cl)c1)c1cnc2cc(Cl)ccc2c1N1CCC(CO)CC1 15 to 45 µM
CC1CCN(c2c(S(=O)(=O)c3ccc(Cl)c(Cl)c3)cnc3ccc(F)cc23)CC1 < 3 µM
CC1CCN(c2c(S(=O)(=O)c3ccc(Cl)c(Cl)c3)cnc3ccc(Cl)cc23)CC1 < 3 µM

### Prompt Fill in the blank: the reported solubility of "N#Cc1cc(F)cc(S(=O)(=O)c2cnc3cc(Cl)ccc3c2N2CCC(CO)CC2)c1" is ____.
### Response 15 to 45 µM
